Data origin, for the record: ChEMBL document CHEMBL5104146

test: Inhibition of 17beta-HSD1 (unknown origin); design: species or system Homo sapiens
QUANTITY: EC50

So what's the measured EC50 for this one? "O=C1C(O)=C(c2ccc(O)cc2)C(=O)C(O)=C1c1ccc(O)cc1"
> 100 µM

----------
assay: Inhibition of Saccharomyces cerevisiae alpha-glucosidase using pNPG as substrate preincubated for 10 mins followed by substrate addition measured after 15 mins by absorbance based microplate reader analysis
QUANTITY: IC50 (µM)
Please give a number only; it is taken to be in µM.

Return reported IC50; argument: "O=C(Oc1c(OC(=O)c2ccccc2)c(-c2ccc(O)cc2)c(OC(=O)c2ccccc2)c(O)c1-c1ccc(O)cc1)c1ccccc1"
4.53

Return reported IC50; argument: "CC(=O)Oc1c(OC(=O)c2ccccc2)c(-c2ccc(O)cc2)c(O)c(O)c1-c1ccc(O)cc1"
0.99

Can you share its IC50? I mean this molecule: "CC(=O)Oc1c(OC(=O)c2ccccc2)c(-c2ccc(O)cc2)c(OC(=O)c2ccccc2)c(OC(=O)c2ccccc2)c1-c1ccc(O)cc1"
2.98

Consider the molecule shown here: "COC1=C(c2ccc(O)cc2)C(=O)C(OC(=O)c2ccccc2)=C(c2ccc(O)cc2)C1=O" What is its recorded IC50?
18.8
